Overview of reported Tm (°C) across a group of compounds:
molecular target: RipA (Yersinia pestis, UniProt Q9ZC36); conditions: 5 µM RipA, 20 µM ligand, 100 mM potassium phosphate pH 7.4; Tm with ligand, apo RipA 45.8 °C

COMPOUND	Tm (°C)
CCC(=O)SCCNC(=O)CCNC(=O)[C@H](O)C(C)(C)COP(=O)(O)OP(=O)(O)OC[C@H]1O[C@@H](n2cnc3c(N)ncnc32)[C@H](O)[C@@H]1OP(=O)(O)O [Propionyl-CoA]	53.5
CC(=O)CC(=O)SCCNC(=O)CCNC(=O)[C@H](O)C(C)(C)COP(=O)(O)OP(=O)(O)OC[C@H]1O[C@@H](n2cnc3c(N)ncnc32)[C@H](O)[C@@H]1OP(=O)(O)O [Aceto-acetyl-CoA]	48.3
CCCC(=O)SCCNC(=O)CCNC(=O)[C@H](O)C(C)(C)COP(=O)(O)OP(=O)(O)OC[C@H]1O[C@@H](n2cnc3c(N)ncnc32)[C@H](O)[C@@H]1OP(=O)(O)O [Butyryl-CoA]	53.4
CC(=O)SCCNC(=O)CCNC(=O)[C@H](O)C(C)(C)COP(=O)(O)OP(=O)(O)OC[C@H]1O[C@@H](n2cnc3c(N)ncnc32)[C@H](O)[C@@H]1OP(=O)(O)O [Acetyl-CoA]	52.8
C/C=C/C(=O)SCCNC(=O)CCNC(=O)[C@H](O)C(C)(C)COP(=O)(O)OP(=O)(O)OC[C@H]1O[C@@H](n2cnc3c(N)ncnc32)[C@H](O)[C@@H]1OP(=O)(O)O [Crotonyl-CoA]	47.9
CC(C)(COP(=O)(O)OP(=O)(O)OC[C@H]1O[C@@H](n2cnc3c(N)ncnc32)[C@H](O)[C@@H]1OP(=O)(O)O)[C@@H](O)C(=O)NCCC(=O)NCCSC(=O)CCC(=O)O [Succinyl-CoA]	52.8
